Entries and their measured composite z-score follow.
- Measurement notes: small-molecule binders of probe aNOTCH2, primary screen, biochemical, small-molecule microarray, 635/667 nm fluorescence (AID 1121);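 also: score merges feature fluorescence read at 667 nm with its signal to noise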
- Experimental setup: higher = more signal
Measured quantity: composite z-score

1. CO[C@H]1COC(=O)[C@@H](Cc2ccccc2)NC(=O)[C@@H](C)COC(=O)CCC[C@@H]1C    -0.132
2. CCOC(=O)NN=C1C[C@@H](O)[C@@H](O)[C@@H]2[C@@H]3C(=O)N(C(C)(C)C)C(=O)[C@@H]3CC[C@H]12    0.272
3. O=c1n(Cc2cc3c(cc2Cl)OCO3)c(=O)n2n1CC[C@@H]1C(=NOCc3ccccc3)[C@H]3O[C@H]3[C@@H](O)[C@@H]12    -0.0495
4. CCOC(=O)[C@H](Cc1ccccc1)NC(=O)CCC1CC(OC(=O)NCCc2ccc(F)cc2)CC2(CCCC(COC(=O)NCc3ccccc3)O2)O1 (some centres not stated)    -0.124
5. O=C1[C@H]2[C@H]3[C@H](O)[C@H](O)CC(=NOCc4ccccc4)[C@@H]3CC[C@H]2C(=O)N1c1ccc(F)cc1F    -0.157
6. CO[C@H]1COC(=O)[C@H](C)NC(=O)CC=C[C@@H](C)[C@H](OC)COC(=O)[C@@H](OCc2ccccc2)C=C[C@@H]1C    -0.0657
7. CCOC(=O)[C@H](Cc1ccccc1)NC(=O)CCC1CC(OC(=O)NCCc2ccc(F)cc2)CC2(CCCC(COC(=O)NCCOC)O2)O1 (some centres not stated)    -0.157

---

Entries annotated with measured composite z-score
- Measurement notes: COS7 lysate on small-molecule microarray, probe aHis, 635 nm (AID 1123);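 also: z-score combines 667nm fluorescence intensity with signal-to-noise per printed compound spot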
- Experimental setup: COS7 cell lysate, fluorescence, higher = more signal
Measured quantity: composite z-score

1) CC(C)=CCCC(C)=CCON=C1C[C@@H](O)[C@@H](O)[C@@H]2[C@@H]3C(=O)N(C(C)(C)C)C(=O)[C@@H]3CC[C@H]12    0.043
2) CC(C)(C)N1C(=O)[C@H]2[C@H]3[C@H](O)[C@H](O)CC(=O)[C@H]3CC[C@H]2C1=O    0.165
3) CO[C@H]1COC(=O)CC=C[C@H](C)[C@@H](OC)COC(=O)[C@@H](C)NC(=O)CC=C[C@@H]1C    -0.629
4) CSCC[C@@H]1NC(=O)CC=C[C@@H](C)COC(=O)[C@@H](C)COC1=O    -1.1

---

- Measurement notes: P. aeruginosa biofilm formation inhibitors, primary screen, PAO1 strain, BacTiter-Glo luminescence, LB-PBS (AID 1144)
- Experimental setup: 12 h, higher = more signal
Measured quantity: z-score

1) CC(=O)OC[C@H]1O[C@H](CC=NO[C@H](C)c2cn([C@H](CO)Cc3ccccc3)nn2)C=C[C@@H]1OC(C)=O    -0.738
2) C=CC[C@@H]1C=C[C@H](ON=C(C)CCN2CCc3nc(-c4ccccc4)c(-c4ccccc4)cc3C2)[C@@H](CO)O1    -0.117
3) CC(C)=CCCC(C)=CCON=C1C[C@@H](O)[C@@H](O)[C@@H]2[C@@H]3C(=O)N(Cc4ccccc4)C(=O)[C@@H]3CC[C@H]12    -0.302
4) COc1cccc([C@H]2Oc3ccc(OC)cc3C(=NO[C@H](C)c3cn([C@H](CO)Cc4ccccc4)nn3)[C@@H]2O)c1    0.829

---

- Test system: Neuregulin-1 EGF-like domain
- Measurement notes: binders of neuregulin-1 EGF-like domain, primary screen, biochemical, small-molecule microarray, 635 nm fluorescence (AID 1081);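 also: binding of the protein to compounds printed on small-molecule microarray slides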
- Experimental setup: small-molecule microarray binding, higher = more signal
Recorded composite z-score determines the group label, using lower = under 0.2, middle = from 0.2 up to 0.7, upper = 0.7 and over

1. COC(=O)[C@H](C)NC(=O)CCC1CC(OC(=O)NCCc2ccc(F)cc2)CC2(CCCC(COC(=O)NCCC(C)C)O2)O1 (stereo partly specified)    upper
2. CC(C)(C)N1C(=O)[C@H]2[C@H]3[C@H](O)[C@H](O)CC(=O)[C@H]3CC[C@H]2C1=O    upper
3. Cc1cc2c(nc1C)CCCN2CC(O)CN1CCCc2nc(C)c(C)cc21    upper
4. CCOC(=O)[C@H](Cc1ccccc1)NC(=O)CCC1CC(OC(=O)NCc2cccc3ccccc23)CC2(CCCC(COC(=O)NCc3cccc(C(F)(F)F)c3)O2)O1 (stereo partly specified)    upper
5. CC(C)(C)N1C(=O)[C@H]2[C@H]3[C@H](O)C=CC(=O)[C@@H]3CC[C@H]2C1=O    middle
6. O=C1CCCC(C2=CCCCC2=O)C1 (stereo unspecified)    lower
7. CO[C@@H]1C=CCC(=O)N[C@@H](C)C(=O)OC[C@@H](OC)[C@H](C)CCCC(=O)OC[C@H]1C    lower
8. CCOC(=O)C1=NO[C@@]2(C=C(Br)C3(OCCCO3)[C@H]3O[C@H]32)C1    middle
9. O=c1n(Cc2cc3c(cc2Cl)OCO3)c(=O)n2n1CC[C@@H]1C(=NOCc3ccccc3)[C@H]3O[C@H]3[C@@H](O)[C@@H]12    middle
10. C#CCCCON=C1C[C@@H](O)[C@@H](O)[C@@H]2[C@@H]3C(=O)N(c4cccc(Oc5ccccc5)c4)C(=O)[C@@H]3CC[C@H]12    middle
11. CC[C@@H](c1ccccc1)n1c(=O)n2n(c1=O)[C@H]1[C@H](O)[C@@H]3O[C@@H]3C(=O)[C@H]1CC2    lower
12. CC(C)CON=C1C[C@@H](O)[C@@H](O)[C@@H]2[C@@H]3C(=O)N(C(C)(C)C)C(=O)[C@@H]3CC[C@H]12    lower
13. CON=C(C)CCC(=O)OC[C@H]1O[C@H](c2ccccc2)C=C[C@@H]1Oc1ccc(OC)cc1    lower
14. COc1ccc(O[C@H]2C=C[C@@H](c3ccccc3)O[C@@H]2CON=C(C)C)cc1    lower
15. CCOC(=O)[C@H](CC(C)C)NC(=O)CCC1CC(OC(=O)NCc2cccc3ccccc23)CC2(CCCC(COC(=O)NCCOc3ccccc3)O2)O1 (stereo partly specified)    upper
16. O=C1C[C@@H](O)[C@@H](O)[C@@H]2[C@@H]3C(=O)N(C[C@@H]4CCCO4)C(=O)[C@@H]3CC[C@H]12    upper

---

- Measurement notes: E. coli acrAB mutant growth effects, primary screen, E. coli filamentation inducers, strain DRC39, OD650, 24 h (AID 1178);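 also: growth measured as culture turbidity by optical density at 650 nm; test concentration not given here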
- Experimental setup: higher = more signal, called active from +8 up or from −8 down
Active and inactive are the calls of the source.
Measured quantity: z-score

1. CC(C)CON=C1C[C@@H](O)[C@@H](O)[C@@H]2[C@@H]3C(=O)N(C4CCCCC4)C(=O)[C@@H]3CC[C@H]12    -0.651 (inactive)
2. CCN1C(=O)[C@H]2[C@H]3[C@H](O)[C@H](O)CC(=NOCC(C)C)[C@@H]3CC[C@H]2C1=O    -0.556 (inactive)
3. COC(=O)[C@H]1O[C@@H](c2c(OC)c(OC)c(C)c(OC)c2OC)[C@H](C)[C@@H](O)[C@H]1C    0.968 (inactive)
4. O=C1C[C@@H](O)[C@@H](O)[C@@H]2[C@@H]3C(=O)N(C[C@@H]4CCCO4)C(=O)[C@@H]3CC[C@H]12    0.343 (inactive)
5. CCOC(=O)NN=C1C[C@@H](O)[C@@H](O)[C@@H]2[C@@H]3C(=O)N(c4cccc(Oc5ccccc5)c4)C(=O)[C@@H]3CC[C@@H]12    -0.347 (inactive)
6. O=C1CCCC=C1C(O)CCOC(c1ccccc1)(c1ccccc1)c1ccccc1 (stereo not drawn)    0.0368 (inactive)
7. O=c1n(Cc2cc3c(cc2Cl)OCO3)c(=O)n2n1CC[C@@H]1C(=NOC[C@@H](O)COCc3ccco3)[C@H]3O[C@H]3[C@@H](O)[C@@H]12    -0.133 (inactive)
8. CO[C@H]1COC(=O)[C@@H](C)COC(=O)[C@H](C)NC(=O)CC=C[C@H]1C    0.618 (inactive)

---

- Target or test system: Follistatin-related protein 3 (Homo sapiens)
- Measurement notes: FSTL3 binders on small-molecule microarrays, primary screen, biochemical, small-molecule microarray, 635 nm fluorescence (AID 1105);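 also: score merges emission near 667 nm and signal to noise per printed spot across three slides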
- Experimental setup: FSTL3 binding, higher = more signal
Returns one of True or False; True when composite z-score is >= -0.1.

1) CCOC(=O)[C@H](Cc1ccccc1)NC(=O)CCC1CC(OC(=O)NCc2cccc3ccccc23)CC2(CCCC(COC(=O)NCc3ccccc3)O2)O1 (some centres not stated)    True
2) CSCC[C@@H]1NC(=O)CC=C[C@@H](C)COC(=O)[C@@H](C)COC1=O    False
3) COC(=O)[C@@H]1CC[C@H](C)[C@@H](c2ccc(C)cc2)N1C(=O)c1ccc(C=NO[C@H](C)c2cn([C@H](CO)Cc3ccccc3)nn2)cc1    True
4) CC(C)CCN1CCc2nc(COc3ccccc3)c3c(c2C1)CO[C@@H](C)C3    False
5) COC(=O)[C@@H]1CC[C@H](C)[C@@H](c2ccc(C)cc2)N1C(=O)c1ccc(C=NOCC[C@@H]2C=C[C@H](OC(C)=O)[C@@H](COC(C)=O)O2)cc1    True
6) CCOC(=O)[C@H](Cc1ccccc1)NC(=O)CCC1CC(OC(=O)NCc2cccc3ccccc23)CC2(CCCC(COC(=O)NCc3cccc(C(F)(F)F)c3)O2)O1 (some centres not stated)    False
7) CC[C@@H](c1ccccc1)n1c(=O)n2n(c1=O)[C@H]1[C@H](O)[C@@H]3O[C@@H]3C(=NOC[C@@H](O)COCc3ccco3)[C@H]1CC2    False
